Experiment: Intrinsic clearance in rat liver microsomes assessed per mg of protein at 1 uM after 10 to 30 mins by LC/MS analysis in presence of UDP-glucuronic acid
Format: ADME, Microsome
quantityKind: microsomal CLint at 1 µM (µL/min/mg)

[[record]]
smilesstr = "CCc1cc2c(cc1CC)CC(NC[C@H](O)c1ccc(O)c3[nH]c(=O)ccc13)C2"
quantitykind = "microsomal CLint at 1 µM"
reportedresult = 378


###

Conditions: pH 7.4
Description: Chromatographic hydrophobicity index at 2 mg/ml at pH 7.4 by rapid gradient HPLC analysis
Overview of recorded CHI for various compounds
quantityKind: CHI

[[record]]
compound = "O=c1ccc2c([C@@H](O)CNC3Cc4ccccc4C3)ccc(O)c2[nH]1"
quantitykind = "CHI"
op = "="
reportedresult = 38.2

[[record]]
compound = "OCc1cc(C(O)CNCCCCCCOCCCCc2ccccc2)ccc1O (stereo not given)"
quantitykind = "CHI"
op = "="
reportedresult = 56.7

[[record]]
compound = "CCc1ccc(CC)c2c1CC(NC[C@H](O)c1ccc(O)c3[nH]c(=O)ccc13)C2"
quantitykind = "CHI"
op = "="
reportedresult = 62.9

[[record]]
compound = "CCc1cc2c(cc1CC)CC(NC[C@H](O)c1ccc(O)c3[nH]c(=O)ccc13)C2"
quantitykind = "CHI"
op = "="
reportedresult = 59.7

[[record]]
compound = "CC(C)(C)NCC(O)c1ccc(O)c(CO)c1 (stereo not given)"
quantitykind = "CHI"
op = "="
reportedresult = 21

[[record]]
compound = "COc1cc2c(cc1OC)CC(NC[C@H](O)c1ccc(O)c3[nH]c(=O)ccc13)C2"
quantitykind = "CHI"
op = "="
reportedresult = 32.4

[[record]]
compound = "CCCc1cc2c(cc1CCC)CC(NC[C@H](O)c1ccc(O)c3[nH]c(=O)ccc13)C2"
quantitykind = "CHI"
op = ">"
reportedresult = 70

[[record]]
compound = "CCCCc1cc2c(cc1CCCC)CC(NC[C@H](O)c1ccc(O)c3[nH]c(=O)ccc13)C2"
quantitykind = "CHI"
op = ">"
reportedresult = 70

[[record]]
compound = "COc1ccc(C[C@@H](C)NC[C@H](O)c2ccc(O)c3[nH]c(=O)ccc23)cc1"
quantitykind = "CHI"
op = "="
reportedresult = 37.7

[[record]]
compound = "Cc1cc2c(cc1C)CC(NC[C@H](O)c1ccc(O)c3[nH]c(=O)ccc13)C2"
quantitykind = "CHI"
op = "="
reportedresult = 54.9


###

Test: Plasma protein binding in human at 1 to 2000 ng/mL after 3 hrs by liquid scintillation counting
Type: ADME, cell-free
Conditions: read-out: PPB (converted)
quantityKind: fraction unbound at 3 h

[[record]]
compound = "CCc1cc2c(cc1CC)CC(NC[C@H](O)c1ccc(O)c3[nH]c(=O)ccc13)C2 [INDACATEROL]"
quantitykind = "fraction unbound at 3 h"
reportedresult = 0.049


###

Biological target: UniProt P02768
Sequence (P02768 whole entry): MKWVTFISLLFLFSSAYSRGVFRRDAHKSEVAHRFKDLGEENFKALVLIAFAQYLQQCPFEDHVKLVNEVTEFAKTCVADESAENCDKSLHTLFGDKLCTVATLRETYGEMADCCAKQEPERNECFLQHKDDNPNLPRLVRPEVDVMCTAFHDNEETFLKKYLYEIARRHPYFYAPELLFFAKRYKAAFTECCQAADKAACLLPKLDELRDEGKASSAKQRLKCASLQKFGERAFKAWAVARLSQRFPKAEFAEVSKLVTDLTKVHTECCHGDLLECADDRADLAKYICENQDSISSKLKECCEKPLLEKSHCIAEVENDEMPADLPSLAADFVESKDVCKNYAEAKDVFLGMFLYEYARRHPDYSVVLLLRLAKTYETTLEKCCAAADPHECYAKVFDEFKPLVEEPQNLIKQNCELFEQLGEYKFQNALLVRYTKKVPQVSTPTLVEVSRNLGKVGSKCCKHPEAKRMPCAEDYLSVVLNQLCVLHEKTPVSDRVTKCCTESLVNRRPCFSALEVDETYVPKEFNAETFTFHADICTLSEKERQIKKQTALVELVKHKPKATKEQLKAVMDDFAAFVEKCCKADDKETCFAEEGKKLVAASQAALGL
Test: Binding affinity to human serum albumin by UV/HPLC analysis
Type: ADME
Conditions: isolated protein
With a cut-off of 90%, any Activity strictly below it is called T; any Activity meeting it or above is called F.

[[record]]
compound = "CC(C)(C)NCC(O)c1ccc(O)c(CO)c1 (stereo not given)"
assignedcategory = "T"

[[record]]
compound = "COc1ccc(C[C@@H](C)NC[C@H](O)c2ccc(O)c3[nH]c(=O)ccc23)cc1"
assignedcategory = "T"

[[record]]
compound = "O=c1ccc2c([C@@H](O)CNC3Cc4ccccc4C3)ccc(O)c2[nH]1"
assignedcategory = "T"

[[record]]
compound = "COc1cc2c(cc1OC)CC(NC[C@H](O)c1ccc(O)c3[nH]c(=O)ccc13)C2"
assignedcategory = "T"

[[record]]
compound = "CCc1ccc(CC)c2c1CC(NC[C@H](O)c1ccc(O)c3[nH]c(=O)ccc13)C2"
assignedcategory = "F"

[[record]]
compound = "CCCc1cc2c(cc1CCC)CC(NC[C@H](O)c1ccc(O)c3[nH]c(=O)ccc13)C2"
assignedcategory = "F"

[[record]]
compound = "CCCCc1cc2c(cc1CCCC)CC(NC[C@H](O)c1ccc(O)c3[nH]c(=O)ccc13)C2"
assignedcategory = "F"

[[record]]
compound = "CCc1cc2c(cc1CC)CC(NC[C@H](O)c1ccc(O)c3[nH]c(=O)ccc13)C2"
assignedcategory = "F"

